Provide the reported binding signal of each item.
- ASSAY SYSTEM: OsWRKY34 (Oryza sativa, UniProt Q0JBA9 1-250)
- Sequence (Q0JBA9 entry or part of it): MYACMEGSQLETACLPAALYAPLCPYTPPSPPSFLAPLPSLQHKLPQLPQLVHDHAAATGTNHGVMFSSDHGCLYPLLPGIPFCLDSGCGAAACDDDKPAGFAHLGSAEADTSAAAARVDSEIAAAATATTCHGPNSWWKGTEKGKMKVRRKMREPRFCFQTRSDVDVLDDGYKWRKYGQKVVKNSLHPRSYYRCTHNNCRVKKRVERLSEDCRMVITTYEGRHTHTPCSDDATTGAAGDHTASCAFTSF
- PROTOCOL TEXT: protein-binding microarray (RPBM); PBS, 2% BSA, 51.3 ng/ul salmon testes DNA, 50 uM zinc acetate, 200 nM TF, 25 C, 1 h; high values mean tight binding
- RUN CONDITIONS: protein: recombinant; tags: N-terminal polyhistidine and DsRed monomer fusion (pET32a); label: CyDye5-dUTP incorporated in the synthesized complementary strand; 3' TTTTT single-stranded linker to array surface; dsDNA, one strand shown
The full ranking holds about 68,000 sequences; the median of “fluorescence intensity (a.u.)” is about 9,100, and the highest 2% start at about 16,000. Only a selection was taken, and the highest values are over-represented in it overall.

## Task // returns reported binding signal for input TGGCTTGGTCCGCTAGTTCCTAACATCATGACAGTATTTTCGGAGTCACCTAGTGCAG
## Result 8280 fluorescence intensity (a.u.)

## Task // returns reported binding signal for input TGTCAGCCTCGTCCGGCTTCATCCCGTTGCGTCCCATTTTCGGAGTCACCTAGTGCAG
## Result 17600 fluorescence intensity (a.u.)

## Task // returns reported binding signal for input GGCTTCCCGTTGCGCGCGCGTCCCATCCTCGCCGGCGCTTCGGAGTCACCTAGTGCAG
## Result 8470 fluorescence intensity (a.u.)

## Task // returns reported binding signal for input ATCCCGTTGCGTCCCATTTTCCTCGCCCTCGTCGCTAGTTCGGAGTCACCTAGTGCAG
## Result 11200 fluorescence intensity (a.u.)

## Task // returns reported binding signal for input AGCCACCACAGCCATCGCCCGTTCTTCCCGCCGGCCTATCCGGAGTCACCTAGTGCAG
## Result 9990 fluorescence intensity (a.u.)

## Task // returns reported binding signal for input CACCGCCGCAGCCCAAGCCCACCACCACCACCGCCGCCGCCGGAGTCACCTAGTGCAG
## Result 9060 fluorescence intensity (a.u.)

## Task // returns reported binding signal for input ACAGCTTGCCGCCACCACCACACCACGCCGCTCGCCGCCCCGGAGTCACCTAGTGCAG
## Result 8950 fluorescence intensity (a.u.)

## Task // returns reported binding signal for input GGCTTCATCACAGCATCCATCGCCGCCGGCCACCACCACCCGGAGTCACCTAGTGCAG
## Result 12700 fluorescence intensity (a.u.)

## Task // returns reported binding signal for input TAGCTCACATCGTTTTACGTATCTTCCCAATCTCCTGATCCGGAGTCACCTAGTGCAG
## Result 8950 fluorescence intensity (a.u.)

* * *

Provide the reported binding signal of each item.
- ASSAY SYSTEM: OsWRKY34 (Oryza sativa, UniProt Q0JBA9 1-250)
- PROTOCOL TEXT: protein-binding microarray (RPBM); PBS, 2% BSA, 51.3 ng/ul salmon testes DNA, 50 uM zinc acetate, 200 nM TF, 25 C, 1 h; high values mean tight binding
- RUN CONDITIONS: protein: recombinant; tags: N-terminal polyhistidine and DsRed monomer fusion (pET32a); label: CyDye5-dUTP incorporated in the synthesized complementary strand; 3' TTTTT single-stranded linker to array surface; dsDNA, one strand shown
In all, about 68,000 sequences were measured (“fluorescence intensity (a.u.)”: median about 9,100, highest 2% from about 16,000 on). The full list was thinned out, with the highest values kept by preference.

## Task // returns reported binding signal for input TGCATTTCAATTCAAATTTAAGTTGATTCGTTGACTTGTTCGGAGTCACCTAGTGCAG
## Result 10100 fluorescence intensity (a.u.)

## Task // returns reported binding signal for input CTTCTCCCATGCGCCGCCGCAATCTCATCTCTCTGTTTTTCGGAGTCACCTAGTGCAG
## Result 9220 fluorescence intensity (a.u.)

## Task // returns reported binding signal for input TTTGGTCAAAGTCAAACTGCTTCTAGTTTGACTAAATTTACGGAGTCACCTAGTGCAG
## Result 17800 fluorescence intensity (a.u.)

## Task // returns reported binding signal for input GTTCCCAACGGTCACCTCGTCGTCGTTGCCAAATCTGCCACGGAGTCACCTAGTGCAG
## Result 8670 fluorescence intensity (a.u.)

## Task // returns reported binding signal for input AAATTTGAAGTAGTTTGACTTTGACCAAAGTCAAAACATCCGGAGTCACCTAGTGCAG
## Result 17600 fluorescence intensity (a.u.)

## Task // returns reported binding signal for input AAGCTTTGACTTTTTTTTGTCAAATTTTTTAAGTTTGATTCGGAGTCACCTAGTGCAG
## Result 20400 fluorescence intensity (a.u.)

## Task // returns reported binding signal for input AGATGTTTTGACTTTAGTCAAAGTCAAACTGCTTTAAGTTCGGAGTCACCTAGTGCAG
## Result 11800 fluorescence intensity (a.u.)

## Task // returns reported binding signal for input GTTGCTTTTGCTGGAGTAGTACTTCTATTTATCTTCAAACCGGAGTCACCTAGTGCAG
## Result 9100 fluorescence intensity (a.u.)

## Task // returns reported binding signal for input ATTTTGGTCAAATTTAAACTAATCTAAGTTTGACTAATTTCGGAGTCACCTAGTGCAG
## Result 8610 fluorescence intensity (a.u.)

* * *

- ASSAY SYSTEM: OsWRKY34 (Oryza sativa, UniProt Q0JBA9 1-250)
- PROTOCOL TEXT: protein-binding microarray (RPBM); PBS, 2% BSA, 51.3 ng/ul salmon testes DNA, 50 uM zinc acetate, 200 nM TF, 25 C, 1 h; high values mean tight binding
- RUN CONDITIONS: protein: recombinant; tags: N-terminal polyhistidine and DsRed monomer fusion (pET32a); label: CyDye5-dUTP incorporated in the synthesized complementary strand; 3' TTTTT single-stranded linker to array surface; dsDNA, one strand shown
The full ranking holds about 68,000 sequences; the median of “fluorescence intensity (a.u.)” is about 9,100, and the highest 2% start at about 16,000. This is one part of a sample in which the highest values are shown more often than they occur.
PROPERTY: binding signal

## Task // returns reported binding signal for input GGTGGTGGTGGTGGTGGTGGTGGTGTAGGAGGAGGAGGAGCGGAGTCACCTAGTGCAG
## Result 27600 fluorescence intensity (a.u.)

## Task // returns reported binding signal for input GAGGAGGGGAGAAACGGGAGGTTGGTGGTGGTGGTGGAGGCGGAGTCACCTAGTGCAG
## Result 15200 fluorescence intensity (a.u.)

## Task // returns reported binding signal for input GGAGGAGGAGGAGGGAGAGGGTGGTGTAGTGGGAGCGGCCCGGAGTCACCTAGTGCAG
## Result 8170 fluorescence intensity (a.u.)

## Task // returns reported binding signal for input GAGGTGGCTTTGGCGGCGGAGTGGGAGGCGGTGGTGGTGGCGGAGTCACCTAGTGCAG
## Result 10000 fluorescence intensity (a.u.)

## Task // returns reported binding signal for input GAGGGCGGAGGAGGTGGTGAGGGAGGAGGTGCGGAGGCTGCGGAGTCACCTAGTGCAG
## Result 8320 fluorescence intensity (a.u.)

* * *

Provide the reported binding signal of each item.
- ASSAY SYSTEM: OsWRKY34 (Oryza sativa, UniProt Q0JBA9 1-250)
- PROTOCOL TEXT: protein-binding microarray (RPBM); PBS, 2% BSA, 51.3 ng/ul salmon testes DNA, 50 uM zinc acetate, 200 nM TF, 25 C, 1 h; high values mean tight binding
- RUN CONDITIONS: protein: recombinant; tags: N-terminal polyhistidine and DsRed monomer fusion (pET32a); label: CyDye5-dUTP incorporated in the synthesized complementary strand; 3' TTTTT single-stranded linker to array surface; dsDNA, one strand shown
In all, about 68,000 sequences were measured (“fluorescence intensity (a.u.)”: median about 9,100, highest 2% from about 16,000 on). The sample as a whole holds a higher share of the highest values than the screen did.

## Task // returns reported binding signal for input GCCGCGCACGCCGTCATCTCTTTTTCGTTCCATACTTCTCCGGAGTCACCTAGTGCAG
## Result 10700 fluorescence intensity (a.u.)

## Task // returns reported binding signal for input TTTTGTGTATGTTTCGGTGGGAATTTGAGGGTTGTGTTTTCGGAGTCACCTAGTGCAG
## Result 14200 fluorescence intensity (a.u.)

## Task // returns reported binding signal for input CGAGAGAGAGAGGGGAGGGTTTTGGGTTGTGCTTAGGTTTCGGAGTCACCTAGTGCAG
## Result 13100 fluorescence intensity (a.u.)

## Task // returns reported binding signal for input CGAGGGTTTGGGAGTCGGGGAATTCGGGGTTTGGGGCCGCCGGAGTCACCTAGTGCAG
## Result 26700 fluorescence intensity (a.u.)

## Task // returns reported binding signal for input GTTAAATTCGAGGGGTTTCTTGTAATTTCGGGGTGGATAACGGAGTCACCTAGTGCAG
## Result 16500 fluorescence intensity (a.u.)

## Task // returns reported binding signal for input TCCCAACCCACCGTTCCATTCTCTCGAGCTCACCCCGTCACGGAGTCACCTAGTGCAG
## Result 10500 fluorescence intensity (a.u.)

## Task // returns reported binding signal for input CAATGGAGGGGTGTTTTTTTTTCTATTTTTCTAAATAATTCGGAGTCACCTAGTGCAG
## Result 14800 fluorescence intensity (a.u.)

## Task // returns reported binding signal for input AATTCGGGGTTTGGGGCCGCGGAGGGGTGCTTACGTGAGTCGGAGTCACCTAGTGCAG
## Result 15100 fluorescence intensity (a.u.)

## Task // returns reported binding signal for input GCGGAGGCAGGGAGGGTTTTGGAATTTTCGGCCGCCGTTGCGGAGTCACCTAGTGCAG
## Result 10100 fluorescence intensity (a.u.)
